test-method-notes: NCI Yeast Anticancer Drug Screen. Data for the mlh1 strain (AID 171);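 also: 0% = growth of vehicle-treated control cultures of the same strain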
test-conditions: S. cerevisiae mlh1 strain growth inhibition; at 33.0 µM
About 79,000 compounds went through this panel and 15% of them were active in at least one assay; those are over-represented in the sample as a whole. The source made the active and inactive calls. Rule as the data show it: active = growth inhibition above about 70%; inactive = the rest.
Please answer using one outcome listed in 1 (yes) = active, 0 (no) = inactive

Just curious, what result did O=C1c2ccccc2-c2n[nH]c3cccc1c23 get here?
0 (no)

Just curious, what result did O=[N+]([O-])c1ccc2nc3ccccc3cc2c1 get here?
0 (no)

Just curious, what result did Cc1nn(-c2cc(Cl)ccc2[N+](=O)[O-])c(C)c1Cl get here?
0 (no)

Just curious, what result did CCOC(=O)[C@H]1Nc2ccccc2C2c3ccccc3CC21 (some centres not stated) get here?
1 (yes)

Just curious, what result did Cn1c2ccccc2c(=O)c2cc(NC(=O)CCCCC(=O)Nc3ccc4c(c3)c(=O)c3ccccc3n4C)ccc21 get here?
0 (no)

Just curious, what result did CC(C)[N+]([O-])(CCCNc1c2ccccc2nc2cccc([N+](=O)[O-])c12)C(C)C get here?
1 (yes)

Just curious, what result did CCCC/C=C/C(CC)(C(=O)OCC)C(=O)OCC get here?
0 (no)

Just curious, what result did CCOC(=O)c1cnc2c(C(F)(F)F)cccc2c1N=[N+]=[N-] get here?
0 (no)

Just curious, what result did CN(C)c1ccc(Sc2ccc3nc(N)nc(N)c3c2)cc1 get here?
0 (no)

Just curious, what result did O=C(NNc1ccnc2cc(Cl)ccc12)/C(=C\c1ccccc1Cl)NC(=O)c1ccccc1 get here?
0 (no)

Just curious, what result did NC1=NS(=O)(=O)N=C(N)C1=Cc1ccc([N+](=O)[O-])o1 get here?
0 (no)

Just curious, what result did CC(/C=C/c1ccc(Cl)cc1)=N\NC(=S)NCC(C)C get here?
0 (no)

Just curious, what result did CCC#CCCCOC(=O)c1cc([N+](=O)[O-])cc([N+](=O)[O-])c1 get here?
1 (yes)

Just curious, what result did O=c1c2ccccc2ncn1COCc1ccccc1 get here?
0 (no)

Just curious, what result did CCc1ncnc2cc(OCC3CO3)c(OC)cc12 (configuration not stated) get here?
0 (no)

Just curious, what result did CC1OCC2OC(C)OC(C3C4=C(CC(C)(C)CC4=O)OC4=C3C(=O)CC(C)(C)C4)C2O1 (configuration not stated) get here?
0 (no)

Just curious, what result did CCOC(=O)c1cnc2cc(C(F)(F)F)ccc2c1N=[N+]=[N-] get here?
0 (no)

Just curious, what result did CC(=O)Cc1ccc[cH-]1.[Fe+2].c1cc[cH-]c1 get here?
0 (no)

Just curious, what result did COc1cc(/C=C2\CCc3ccccc3C2=O)cc(OC)c1OC get here?
0 (no)

Just curious, what result did S=C(N/N=C/c1ccccn1)Nc1ccc(Cl)cc1 get here?
0 (no)

Just curious, what result did CCCCCCCCNC(=O)C1=C(C)NC(C)=C(C(=O)NCCCCCCCC)C1 get here?
0 (no)

Just curious, what result did Cc1ccc2ccc3cccc4ccc1c2c34 get here?
0 (no)

Just curious, what result did O=C(O)CNc1ccc(Cl)c(Cl)c1 get here?
1 (yes)

Just curious, what result did Cc1c(C(=O)C(=O)c2ccccc2)c(C)c(C(=O)C(=O)c2ccccc2)c(C)c1C(=O)C(=O)c1ccccc1 get here?
0 (no)

Just curious, what result did CCCCCCCCCCC1CCC(=O)O1 (configuration not stated) get here?
0 (no)

Just curious, what result did COc1cc(C2c3cc4c(cc3OC(Nc3ccccc3)C2C)OCO4)cc(OC)c1O (configuration not stated) get here?
0 (no)

Just curious, what result did Cc1ccc(NN(NC(=O)OC(C)C)C(=O)OC(C)C)cc1 get here?
0 (no)

Just curious, what result did BrCc1cccc2ccc3cccc(CBr)c3c12 get here?
0 (no)

Just curious, what result did CC(=O)[O][Bi]([c]1ccccc1)[c]1ccccc1 get here?
1 (yes)

Just curious, what result did Cn1c(=O)c(-c2ccccc2)c(N=[N+]=[N-])c2ccccc21 get here?
1 (yes)

Just curious, what result did CCCCCCCCCC/C=C\C(=O)O get here?
0 (no)

Just curious, what result did CCC(=O)Oc1c(Cl)cc(Cl)c2ccccc12 get here?
0 (no)

Just curious, what result did Cc1ccc(CCC2=CCCc3c2ccc2ccccc32)cc1 get here?
0 (no)

Just curious, what result did O=C(O)c1cccc(-c2c3ccc(=O)cc-3oc3cc(O)ccc23)c1 get here?
1 (yes)

Just curious, what result did O=[N+]([O-])CC(SCc1ccccc1)c1ccc2c(c1)OCO2 (configuration not stated) get here?
1 (yes)

Just curious, what result did COC(=O)c1ccc([N+](=O)[O-])c(O)c1 get here?
0 (no)

Just curious, what result did N#C/C(=C\c1cccc(OCc2ccccc2)c1)c1ccc([N+](=O)[O-])cc1 get here?
0 (no)

Just curious, what result did COc1ccc(NC(=S)N/N=C(\c2ccccc2)c2ccccn2)cc1 get here?
0 (no)

Just curious, what result did O=C1C=CC(=C(c2ccccc2)c2ccccc2)c2ccccc21 get here?
0 (no)

Just curious, what result did c1ccc2c(c1)sc1cc3ccncc3cc12 get here?
0 (no)

Just curious, what result did CC[n+]1ccc2c(C)c3[nH]c4ccc(O)cc4c3c(C)c2c1 get here?
0 (no)

Just curious, what result did O=C(NCCCCCCCN1CCCCCCC1)C(C1CCCCC1)C1CCCCC1 get here?
1 (yes)

Just curious, what result did Oc1ccc(NCn2c(=S)sc3ccccc32)cc1 get here?
0 (no)

Just curious, what result did CN(C)c1nc2sc3c(c2c(=O)o1)CCCC3 get here?
0 (no)

Just curious, what result did O=C1C(=O)c2ccccc2C=C1[N+](=O)[O-] get here?
0 (no)

Just curious, what result did COc1ccccc1C(=O)OCC1CCCN2CCCCC12 (configuration not stated) get here?
1 (yes)

Just curious, what result did CC(=O)Oc1cc(-c2cc(OC(C)=O)c(OC(C)=O)c3ccccc23)c2ccccc2c1OC(C)=O get here?
0 (no)

====

test-method-notes: NCI Yeast Anticancer Drug Screen. Data for the mec2-1 strain (AID 157)
test-conditions: S. cerevisiae mec2-1 strain, at 100.0 µM, active compounds read high
Compounds without any hit were thinned out: in the full panel of roughly 79,000, 15% have a hit.
Entries are sorted into classes by growth inhibition as follows: Low: < 10%; Medium: ≥ 10% and < 90%; High: ≥ 90%

Pick a category. Item: O=C1Nc2ccc(Cl)c(I)c2C1=O
Medium

Pick a category. Item: Cc1ccc2[nH]c3c(C)c4cc[n+](C)cc4c(C)c3c2c1
High

Pick a category. Item: COc1ccc(-c2cn(-c3ccc(I)cc3)c3ncnc(N)c23)cc1
Low

Pick a category. Item: O=C(NNc1ccnc2cc(Cl)ccc12)/C(=C\c1ccccc1Cl)NC(=O)c1ccccc1
Medium

Pick a category. Item: COP(=O)(OC)/C(=C\C1=CN(C(c2ccccc2)(c2ccccc2)c2ccccc2)CN1)NC=O
High

Pick a category. Item: COc1ccc2c(c1)C(=O)c1ccccc1C2
Low

Pick a category. Item: CC(C)/C(Cl)=N\OC(=O)Nc1cccc(Cl)c1
Low

Pick a category. Item: O=C(N=Nc1ccccc1Cl)NNc1ccccc1Cl
Medium

Pick a category. Item: CCC[CH2][Ge]([CH2]CCC)([CH2]CCC)[O]C(=O)C(OC)c1ccccc1 (configuration not stated)
High

Pick a category. Item: c1ccc2c(c1)c1ncccc1c1nccnc21
Low

Pick a category. Item: CCOC(=O)c1cc(-c2ccc(Cl)cc2)c([N+](=O)[O-])n1C
High

Pick a category. Item: CC1=C(SCCO)C(=O)c2ccccc2C1=O
Medium

Pick a category. Item: Nc1nc(-c2cccnc2)cc(-c2cc(-c3cccnc3)nc(N)n2)n1
Low

Pick a category. Item: CCN(CC)C(C)(C)C(=O)/C=C/c1ccccc1
Low

Pick a category. Item: C=C1CC(Cn2cc(Br)c(=O)[nH]c2=O)(c2ccc(-c3ccccc3)cc2)OC1=O (configuration not stated)
High

Pick a category. Item: CSC(=S)Nc1cc(C)ccn1
Medium

Pick a category. Item: S=C(Nc1ccc(Cl)cc1)SC1CCCCC1
High

Pick a category. Item: CCN(CC)CCC(=O)c1ccc(Oc2ccc(F)cc2)cc1
High

====

Give growth inhibition for every item shown.
test-method-notes: NCI Yeast Anticancer Drug Screen. Data for the CLN2oe strain (AID 163);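 also: 0% = growth of vehicle-only control cultures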
test-conditions: S. cerevisiae CLN2oe strain, at 100.0 µM, active compounds read high
About 79,000 compounds went through this panel and 15% of them were active in at least one assay; those are over-represented in the sample as a whole.
Give the value in % but do not write % after it.

growth inhibition recorded for this molecule, COc1cc2c(c(OC)c1OC)-c1c(cc3c(c1OC)OCO3)CC(C)C(C)(O)C2OC(=O)c1ccccc1 (stereo not drawn) , is 45

growth inhibition recorded for this molecule, CCC(=O)OCCn1c2nc(=O)[nH]c(=O)c-2nc2cc(C)c(C)cc21 , is -2

growth inhibition recorded for this molecule, CN(N=O)N1C(=O)SCC(c2ccccc2)(c2ccccc2)C1=O , is 9

growth inhibition recorded for this molecule, Cc1ccc2ccc(O)cc2c1 , is 83

growth inhibition recorded for this molecule, CC(C)(CN1CCCCC1)C(=O)CC(SCCS(=O)(=O)O)c1ccc(Br)cc1 (stereo not drawn) , is 33

growth inhibition recorded for this molecule, O=C(NC(Nc1ccc(F)c(Cl)c1)(C(F)(F)F)C(F)(F)F)C(C(F)(F)F)C(F)(F)F , is 97

growth inhibition recorded for this molecule, CC(=O)ON1C(=O)c2cccc3cccc(c23)C1=O , is 77

growth inhibition recorded for this molecule, O=C(CCCN1CCC2(CC1)CC(=O)N(N1CCCCCC1)C2=O)c1ccc(F)cc1 , is 79

growth inhibition recorded for this molecule, c1ccc2c(c1)Oc1cccc3cccc-2c13 , is 18

growth inhibition recorded for this molecule, C(=C\c1ccccc1)/COc1ccccc1C(N1CCOCC1)n1nc2ccccc2n1 (stereo not drawn) , is 93

growth inhibition recorded for this molecule, Fc1ccc(NC(=S)SCc2ccc3c(c2)OCO3)cc1F , is 98

growth inhibition recorded for this molecule, O=C1Nc2ccccc2/C1=C/COc1ccccc1 , is 98

growth inhibition recorded for this molecule, COc1ccc(C2c3cc4c(cc3OC(C)(O)C2C)OCO4)c(OC)c1 (stereo not drawn) , is 82

growth inhibition recorded for this molecule, CC(=O)Cc1ccc[cH-]1.[Fe+2].c1cc[cH-]c1 , is 23

growth inhibition recorded for this molecule, CC(=O)OCCOCNC(=S)N/N=C(\C)c1cnccn1 , is 82

growth inhibition recorded for this molecule, CC[C@@]1(O)C(=O)OCc2c1cc1n(c2=O)Cc2cc3c(CN(C)C)c(O)ccc3nc2-1 , is -1

growth inhibition recorded for this molecule, Oc1ccc(NCn2c(=S)sc3ccccc32)cc1 , is 97

growth inhibition recorded for this molecule, Clc1ccccc1C1OC1c1ccccc1Cl (stereo not drawn) , is 8

growth inhibition recorded for this molecule, O=C1C=CC(=O)N1c1ccc2c(c1)Cc1cc(NC(=O)C(F)(F)F)ccc1-2 , is 50

growth inhibition recorded for this molecule, CC(=O)Oc1cc(-c2cc(OC(C)=O)c(OC(C)=O)c3ccccc23)c2ccccc2c1OC(C)=O , is 57

growth inhibition recorded for this molecule, OCC1OC(OCC(O)C(O)C(O)C(/C=N/Nc2ccccc2)=N/Nc2ccccc2)C(O)C(O)C1O (stereo not drawn) , is 40

growth inhibition recorded for this molecule, O=C1CSc2cc([N+](=O)[O-])ccc2N1 , is -13

growth inhibition recorded for this molecule, O=CNc1ccc2c(c1)C(=O)c1ccccc1-2 , is 75
